- Test: Pharmacokinetic test in SD rats, single intragastric administration
- Condition Info: rat, plasma, po, 25 mg/kg
AUC(0-t) reference

{"Compound": "COc1cc2nn(CCS(=N)(=O)c3ccnc4ccccc34)cc2cc1NC(=O)c1cccc(C(F)(F)F)n1 (stereo not drawn)", "AUC(0-t), ng·h/mL": 8520}
{"Compound": "COc1cc2nn(CCS(=N)(=O)c3ncco3)cc2cc1NC(=O)c1cccc(C(F)(F)F)n1 (stereo not drawn)", "AUC(0-t), ng·h/mL": 8490}
{"Compound": "CC(C)(O)c1cc2nn(CCS(=N)(=O)c3ccccc3)cc2cc1NC(=O)c1cccc(C(F)(F)F)n1 (stereo not drawn)", "AUC(0-t), ng·h/mL": 8100}
{"Compound": "COc1cc2nn(CCS(C)(=N)=O)cc2cc1NC(=O)c1cccc(C(F)(F)F)n1 (stereo not drawn) [MY-004-103, reference compound]", "AUC(0-t), ng·h/mL": 734}
{"Compound": "N=S(=O)(CCn1cc2cc(NC(=O)c3cccc(C(F)(F)F)n3)c(N3CCC(O)C3)cc2n1)c1ccccc1 (stereo not drawn)", "AUC(0-t), ng·h/mL": 8530}
{"Compound": "Cc1cc(-c2nc(C(=O)Nc3cc4cn(CCS(=N)(=O)c5ccccn5)nc4cc3N3CCC(O)C3)co2)ccn1 (stereo not drawn)", "AUC(0-t), ng·h/mL": 7500}
{"Compound": "Cc1cc(-c2nc(C(=O)Nc3cc4cn(CCS(=N)(=O)c5ccncc5)nc4cc3C(C)(C)O)co2)ccn1 (stereo not drawn)", "AUC(0-t), ng·h/mL": 9230}
{"Compound": "Cc1cc(-c2nc(C(=O)Nc3cc4cn(CCS(=N)(=O)c5ccnc6ccccc56)nc4cc3C(C)(C)O)co2)ccn1 (stereo not drawn)", "AUC(0-t), ng·h/mL": 8130}
{"Compound": "Cc1cc(-c2nc(C(=O)Nc3cc4cn(CCS(=N)(=O)c5ccncc5)nc4cc3N3CCOCC3)co2)ccn1 (stereo not drawn)", "AUC(0-t), ng·h/mL": 8200}
{"Compound": "CC(C)(O)c1cc2nn(CCS(=N)(=O)c3ncnc4ccccc34)cc2cc1NC(=O)c1cccc(C(F)(F)F)n1 (stereo not drawn)", "AUC(0-t), ng·h/mL": 8000}
{"Compound": "COc1cc2nn(CCS(=N)(=O)c3ccncc3)cc2cc1NC(=O)c1coc(-c2ccnc(C)c2)n1 (stereo not drawn)", "AUC(0-t), ng·h/mL": 8230}
{"Compound": "N=S(=O)(CCn1cc2cc(NC(=O)c3cccc(C(F)(F)F)n3)c(N3CCOCC3)cc2n1)c1ccncc1 (stereo not drawn)", "AUC(0-t), ng·h/mL": 8630}

* * *

Inhibition rate (%) of hERG current reference
- Study System: UniProtKB Q12809
- Sequence (Q12809 whole entry): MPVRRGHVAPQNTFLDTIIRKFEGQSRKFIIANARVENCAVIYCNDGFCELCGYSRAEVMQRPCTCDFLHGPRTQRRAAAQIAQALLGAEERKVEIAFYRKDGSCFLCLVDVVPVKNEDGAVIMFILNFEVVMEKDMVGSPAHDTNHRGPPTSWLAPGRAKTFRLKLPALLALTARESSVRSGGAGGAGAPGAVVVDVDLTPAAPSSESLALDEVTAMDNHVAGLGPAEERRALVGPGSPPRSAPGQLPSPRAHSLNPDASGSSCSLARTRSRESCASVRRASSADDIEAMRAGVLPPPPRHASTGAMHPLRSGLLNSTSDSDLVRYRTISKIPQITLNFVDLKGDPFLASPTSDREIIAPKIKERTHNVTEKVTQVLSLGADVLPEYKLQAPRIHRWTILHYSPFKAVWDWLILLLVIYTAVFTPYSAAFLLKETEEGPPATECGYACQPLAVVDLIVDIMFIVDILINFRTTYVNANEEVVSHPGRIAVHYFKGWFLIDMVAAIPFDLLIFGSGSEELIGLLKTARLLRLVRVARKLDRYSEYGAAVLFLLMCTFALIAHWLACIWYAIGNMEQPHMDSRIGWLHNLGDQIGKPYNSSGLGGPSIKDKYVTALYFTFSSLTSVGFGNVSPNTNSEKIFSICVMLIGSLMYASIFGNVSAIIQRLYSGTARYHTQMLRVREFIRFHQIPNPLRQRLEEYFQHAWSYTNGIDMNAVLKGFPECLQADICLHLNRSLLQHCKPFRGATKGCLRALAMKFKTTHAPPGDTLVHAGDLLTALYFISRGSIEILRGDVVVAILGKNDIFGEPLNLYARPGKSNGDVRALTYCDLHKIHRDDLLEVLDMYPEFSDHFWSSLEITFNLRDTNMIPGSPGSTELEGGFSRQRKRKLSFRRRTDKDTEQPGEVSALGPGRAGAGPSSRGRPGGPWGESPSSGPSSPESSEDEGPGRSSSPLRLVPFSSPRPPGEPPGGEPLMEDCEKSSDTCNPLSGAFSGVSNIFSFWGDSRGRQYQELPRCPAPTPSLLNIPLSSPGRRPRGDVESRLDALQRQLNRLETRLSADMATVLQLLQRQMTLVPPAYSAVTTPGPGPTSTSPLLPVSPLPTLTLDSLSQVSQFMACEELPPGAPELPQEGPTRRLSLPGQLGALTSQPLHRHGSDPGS
- Test: cell-based
- Condition Info: human, 5 μM

{"Molecule": "CC(C)(O)c1cc2nn(CCS(=N)(=O)c3ncnc4ccccc34)cc2cc1NC(=O)c1cccc(C(F)(F)F)n1 (centres unmarked)", "Study System": "UniProtKB Q12809", "Inhibition rate (%) of hERG current": -1.6}
{"Molecule": "COc1cc2nn(CCS(=N)(=O)c3ccccc3)cc2cc1NC(=O)c1cccc(C(F)(F)F)n1 (centres unmarked)", "Study System": "UniProtKB Q12809", "Inhibition rate (%) of hERG current": -1.0}
{"Molecule": "COc1cc2nn(CCS(=N)(=O)c3ccncc3)cc2cc1NC(=O)c1cccc(C(F)(F)F)n1 (centres unmarked)", "Study System": "UniProtKB Q12809", "Inhibition rate (%) of hERG current": 0.0}
{"Molecule": "CC(C)(O)c1cc2nn(CCS(=N)(=O)c3ccnc4ccccc34)cc2cc1NC(=O)c1cccc(C(F)(F)F)n1 (centres unmarked)", "Study System": "UniProtKB Q12809", "Inhibition rate (%) of hERG current": 0.1}
{"Molecule": "CC(C)(O)c1cc2nn(CCS(=N)(=O)c3ccccc3)cc2cc1NC(=O)c1cccc(C(F)(F)F)n1 (centres unmarked)", "Study System": "UniProtKB Q12809", "Inhibition rate (%) of hERG current": -0.5}
{"Molecule": "Cc1cc(-c2nc(C(=O)Nc3cc4cn(CCS(=N)(=O)c5ccnc6ccccc56)nc4cc3C(C)(C)O)co2)ccn1 (centres unmarked)", "Study System": "UniProtKB Q12809", "Inhibition rate (%) of hERG current": -3.9}
{"Molecule": "COc1cc2nn(CCS(=N)(=O)c3ccncc3)cc2cc1NC(=O)c1cnn2cccnc12 (centres unmarked)", "Study System": "UniProtKB Q12809", "Inhibition rate (%) of hERG current": 2.3}
{"Molecule": "COc1cc2nn(CCS(=N)(=O)c3ncccn3)cc2cc1NC(=O)c1cccc(C(F)(F)F)n1 (centres unmarked)", "Study System": "UniProtKB Q12809", "Inhibition rate (%) of hERG current": 1.7}

* * *

half-life reference
- Test: in vivo
- Condition Info: SD, rat, in vivo, po

{"Compound": "Cc1cc(-c2nc(C(=O)Nc3cc4cn(CCS(=N)(=O)c5ccccn5)nc4cc3N3CCC(O)C3)co2)ccn1 (centres unmarked)", "U": "h", "half-life": 4.5}
{"Compound": "N=S(=O)(CCn1cc2cc(NC(=O)c3cnn4cccnc34)c(N3CCC(O)C3)cc2n1)c1ccccn1 (centres unmarked)", "U": "h", "half-life": 5.5}
{"Compound": "COc1cc2nn(CCS(=N)(=O)c3ccnc4ccccc34)cc2cc1NC(=O)c1cccc(C(F)(F)F)n1 (centres unmarked)", "U": "h", "half-life": 4.8}
{"Compound": "COc1cc2nn(CCS(=N)(=O)c3ccncc3)cc2cc1NC(=O)c1cnn2cccnc12 (centres unmarked)", "U": "h", "half-life": 5.2}
{"Compound": "Cc1cc(-c2nc(C(=O)Nc3cc4cn(CCS(=N)(=O)c5ccnc6ccccc56)nc4cc3C(C)(C)O)co2)ccn1 (centres unmarked)", "U": "h", "half-life": 5.8}

* * *

pIC50: −log10 of the molar value.
A short record of pIC50 observed with IRAK4 kinase (Homo sapiens (Human)) follows.
Sequence (Q9NWZ3 whole entry): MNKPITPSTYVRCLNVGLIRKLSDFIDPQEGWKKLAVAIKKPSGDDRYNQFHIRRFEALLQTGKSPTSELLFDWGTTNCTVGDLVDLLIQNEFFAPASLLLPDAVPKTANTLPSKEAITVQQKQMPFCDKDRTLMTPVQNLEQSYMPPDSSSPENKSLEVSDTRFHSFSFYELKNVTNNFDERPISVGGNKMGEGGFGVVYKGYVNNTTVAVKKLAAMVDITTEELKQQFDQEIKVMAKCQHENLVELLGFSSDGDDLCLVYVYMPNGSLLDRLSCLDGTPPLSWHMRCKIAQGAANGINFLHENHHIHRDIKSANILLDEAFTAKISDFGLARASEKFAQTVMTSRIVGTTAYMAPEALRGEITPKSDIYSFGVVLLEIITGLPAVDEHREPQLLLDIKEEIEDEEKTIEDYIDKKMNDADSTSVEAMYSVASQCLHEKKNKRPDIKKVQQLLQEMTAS
Metric Name: pIC50

{"Compound": "COc1cc2nn(CCS(=N)(=O)c3ncco3)cc2cc1NC(=O)c1cccc(C(F)(F)F)n1 (stereo not drawn) [Compound I-36]", "Recorded Measurement": 9.30}
{"Compound": "N=S(=O)(CCn1cc2cc(NC(=O)c3cccc(C(F)(F)F)n3)c(N3CCC(O)C3)cc2n1)c1ccnc2ccccc12 (stereo not drawn) [Compound I-12]", "Recorded Measurement": 9.52}
{"Compound": "CC(C)(O)c1cc2nn(CCS(=N)(=O)c3ccnc4ccccc34)cc2cc1NC(=O)c1cccc(C(F)(F)F)n1 (stereo not drawn) [Compound I-10]", "Recorded Measurement": 8.96}

* * *

- Test: in vivo
- Condition Info: SD, rat, in vivo, po
half-life reference
Metric Name: half-life (h)

{"Compound": "CC(C)(O)c1cc2nn(CCS(=N)(=O)c3ccccc3)cc2cc1NC(=O)c1cccc(C(F)(F)F)n1 (stereo not shown)", "Recorded Measurement": 5.5}
{"Compound": "COc1cc2nn(CCS(=N)(=O)c3ccncc3)cc2cc1NC(=O)c1cccc(C(F)(F)F)n1 (stereo not shown)", "Recorded Measurement": 5.1}
{"Compound": "COc1cc2nn(CCS(=N)(=O)c3ncco3)cc2cc1NC(=O)c1cccc(C(F)(F)F)n1 (stereo not shown)", "Recorded Measurement": 5.4}
{"Compound": "COc1cc2nn(CCS(=N)(=O)c3ccccc3)cc2cc1NC(=O)c1cccc(C(F)(F)F)n1 (stereo not shown)", "Recorded Measurement": 5}
{"Compound": "CC(C)(O)c1cc2nn(CCS(=N)(=O)c3ncnc4ccccc34)cc2cc1NC(=O)c1cccc(C(F)(F)F)n1 (stereo not shown)", "Recorded Measurement": 5.3}
{"Compound": "COc1cc2nn(CCS(C)(=N)=O)cc2cc1NC(=O)c1cccc(C(F)(F)F)n1 (stereo not shown) [MY-004-103, reference compound]", "Recorded Measurement": 1.4}
{"Compound": "Cc1cc(-c2nc(C(=O)Nc3cc4cn(CCS(=N)(=O)c5ccncc5)nc4cc3N3CCOCC3)co2)ccn1 (stereo not shown)", "Recorded Measurement": 5.4}

* * *

- Test: Pharmacokinetic test in SD rats, single intragastric administration
- Condition Info: rat, plasma, po, 25 mg/kg
Metric Name: log10(AUC(0-t)) (log10 of the value in ng·h/mL)

{"Molecule": "COc1cc2nn(CCS(=N)(=O)c3ccncc3)cc2cc1NC(=O)c1cccc(C(F)(F)F)n1 (stereo not shown)", "Recorded Measurement": 3.92}
{"Molecule": "COc1cc2nn(CCS(=N)(=O)c3ccccc3)cc2cc1NC(=O)c1cccc(C(F)(F)F)n1 (stereo not shown)", "Recorded Measurement": 3.92}
{"Molecule": "N=S(=O)(CCn1cc2cc(NC(=O)c3cnn4cccnc34)c(N3CCC(O)C3)cc2n1)c1ccccn1 (stereo not shown)", "Recorded Measurement": 3.95}
{"Molecule": "COc1cc2nn(CCS(=N)(=O)c3ccncc3)cc2cc1NC(=O)c1cnn2cccnc12 (stereo not shown)", "Recorded Measurement": 3.97}
{"Molecule": "CC(C)(O)c1cc2nn(CCS(C)(=N)=O)cc2cc1NC(=O)c1cccc(C(F)(F)F)n1 (stereo not shown) [MY-004-102, reference compound]", "Recorded Measurement": 2.85}
{"Molecule": "COc1cc2nn(CCS(=N)(=O)c3ncccn3)cc2cc1NC(=O)c1cccc(C(F)(F)F)n1 (stereo not shown)", "Recorded Measurement": 3.90}
{"Molecule": "CC(C)(O)c1cc2nn(CCS(=N)(=O)c3ccnc4ccccc34)cc2cc1NC(=O)c1cccc(C(F)(F)F)n1 (stereo not shown)", "Recorded Measurement": 3.95}

Data origin: patent US20240132473A1
